- subject-of-test: Factor X (FX), P00742
- Sequence (P00742 whole entry, looked up): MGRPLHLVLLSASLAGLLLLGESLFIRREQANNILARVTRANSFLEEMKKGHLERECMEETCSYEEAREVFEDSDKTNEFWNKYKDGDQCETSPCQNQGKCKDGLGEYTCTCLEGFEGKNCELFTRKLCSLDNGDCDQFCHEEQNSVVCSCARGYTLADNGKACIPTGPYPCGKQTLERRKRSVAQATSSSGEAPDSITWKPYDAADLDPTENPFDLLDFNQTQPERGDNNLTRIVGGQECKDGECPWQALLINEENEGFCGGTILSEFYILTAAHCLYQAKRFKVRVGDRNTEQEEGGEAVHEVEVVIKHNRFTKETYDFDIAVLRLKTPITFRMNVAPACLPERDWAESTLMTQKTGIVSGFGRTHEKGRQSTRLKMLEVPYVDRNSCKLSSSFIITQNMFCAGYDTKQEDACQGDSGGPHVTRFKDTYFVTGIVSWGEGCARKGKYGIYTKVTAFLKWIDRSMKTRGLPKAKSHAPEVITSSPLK
Threshold rule: % of WT kcat/KM greater than or equal to 300% is Criterion met; below that, Criterion not met.

# protein, qualitative-label
records = [
    ("FIXa variant K228N/R318Y/E410N (protein) chain 1: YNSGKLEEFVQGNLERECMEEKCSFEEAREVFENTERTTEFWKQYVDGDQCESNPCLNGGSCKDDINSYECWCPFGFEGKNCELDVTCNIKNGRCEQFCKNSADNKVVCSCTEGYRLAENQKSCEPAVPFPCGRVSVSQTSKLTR chain 2: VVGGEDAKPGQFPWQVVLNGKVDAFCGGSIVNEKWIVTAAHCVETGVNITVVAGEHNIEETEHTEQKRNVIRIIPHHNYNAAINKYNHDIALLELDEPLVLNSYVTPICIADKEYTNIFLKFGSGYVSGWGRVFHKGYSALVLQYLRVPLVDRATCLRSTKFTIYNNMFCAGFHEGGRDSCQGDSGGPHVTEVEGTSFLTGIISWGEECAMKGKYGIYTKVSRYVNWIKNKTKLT", "Criterion not met"),
    ("FIXa-K247N/N249S/R338E/T343R/E410N (protein) chain 1: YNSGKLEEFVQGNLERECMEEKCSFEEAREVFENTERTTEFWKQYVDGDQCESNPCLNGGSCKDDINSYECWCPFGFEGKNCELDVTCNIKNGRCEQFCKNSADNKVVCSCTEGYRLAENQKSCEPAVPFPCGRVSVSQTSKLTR chain 2: VVGGEDAKPGQFPWQVVLNGKVDAFCGGSIVNEKWIVTAAHCVETGVKITVVAGEHNIEETEHTEQNRSVIRIIPHHNYNAAINKYNHDIALLELDEPLVLNSYVTPICIADKEYTNIFLKFGSGYVSGWGRVFHKGRSALVLQYLRVPLVDRATCLESTKFRIYNNMFCAGFHEGGRDSCQGDSGGPHVTEVEGTSFLTGIISWGEECAMKGKYGIYTKVSRYVNWIKNKTKLT", "Criterion met"),
    ("FIXa-D203N/F205T/R338E/R403E (protein) chain 1: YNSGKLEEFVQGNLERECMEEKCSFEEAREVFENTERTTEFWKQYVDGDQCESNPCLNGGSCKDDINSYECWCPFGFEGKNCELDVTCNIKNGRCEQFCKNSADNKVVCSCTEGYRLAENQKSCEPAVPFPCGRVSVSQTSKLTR chain 2: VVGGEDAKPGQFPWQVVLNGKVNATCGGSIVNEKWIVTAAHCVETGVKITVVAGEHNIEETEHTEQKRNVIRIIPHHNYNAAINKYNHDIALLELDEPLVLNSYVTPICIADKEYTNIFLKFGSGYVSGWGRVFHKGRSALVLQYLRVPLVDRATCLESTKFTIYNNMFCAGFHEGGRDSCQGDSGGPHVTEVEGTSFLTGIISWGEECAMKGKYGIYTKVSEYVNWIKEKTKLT", "Criterion not met"),
    ("FIXa variant R318Y/R403E/E410N (protein) chain 1: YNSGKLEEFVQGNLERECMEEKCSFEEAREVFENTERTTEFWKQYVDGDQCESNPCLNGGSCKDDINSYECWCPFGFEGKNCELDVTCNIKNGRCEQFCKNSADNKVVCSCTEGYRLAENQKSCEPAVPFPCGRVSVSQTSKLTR chain 2: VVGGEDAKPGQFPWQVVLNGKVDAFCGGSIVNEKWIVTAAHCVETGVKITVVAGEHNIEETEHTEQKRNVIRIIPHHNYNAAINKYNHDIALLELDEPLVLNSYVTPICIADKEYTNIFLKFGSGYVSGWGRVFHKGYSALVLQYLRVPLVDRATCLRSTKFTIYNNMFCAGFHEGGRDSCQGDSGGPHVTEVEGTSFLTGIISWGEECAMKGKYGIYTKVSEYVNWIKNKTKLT", "Criterion not met"),
    ("FIXa-Y155F/K247N/N249S/R318Y/R338E (protein) chain 1: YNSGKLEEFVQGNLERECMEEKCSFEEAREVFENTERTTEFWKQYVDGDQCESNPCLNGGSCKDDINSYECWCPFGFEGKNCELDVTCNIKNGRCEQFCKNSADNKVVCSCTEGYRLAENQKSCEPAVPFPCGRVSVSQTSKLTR chain 2: VVGGEDAKPGQFPWQVVLNGKVDAFCGGSIVNEKWIVTAAHCVETGVKITVVAGEHNIEETEHTEQNRSVIRIIPHHNYNAAINKYNHDIALLELDEPLVLNSYVTPICIADKEYTNIFLKFGSGYVSGWGRVFHKGYSALVLQYLRVPLVDRATCLESTKFTIYNNMFCAGFHEGGRDSCQGDSGGPHVTEVEGTSFLTGIISWGEECAMKGKYGIYTKVSRYVNWIKEKTKLT", "Criterion met"),
    ("FIXa-K247N/N249S/R318Y/R338E/T343R/E410N (protein) chain 1: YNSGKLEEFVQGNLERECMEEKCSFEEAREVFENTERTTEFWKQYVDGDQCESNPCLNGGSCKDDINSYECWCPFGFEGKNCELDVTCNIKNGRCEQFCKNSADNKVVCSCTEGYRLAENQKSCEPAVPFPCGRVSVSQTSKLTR chain 2: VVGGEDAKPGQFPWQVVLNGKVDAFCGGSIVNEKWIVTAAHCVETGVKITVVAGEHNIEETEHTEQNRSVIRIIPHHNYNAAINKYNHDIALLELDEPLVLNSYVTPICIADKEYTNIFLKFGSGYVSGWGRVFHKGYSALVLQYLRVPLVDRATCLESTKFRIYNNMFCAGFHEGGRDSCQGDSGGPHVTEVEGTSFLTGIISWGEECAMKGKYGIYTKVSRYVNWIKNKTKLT", "Criterion met"),
    ("FIXa-K247N/N249S/R318Y/R338E/R403E/E410N (protein) chain 1: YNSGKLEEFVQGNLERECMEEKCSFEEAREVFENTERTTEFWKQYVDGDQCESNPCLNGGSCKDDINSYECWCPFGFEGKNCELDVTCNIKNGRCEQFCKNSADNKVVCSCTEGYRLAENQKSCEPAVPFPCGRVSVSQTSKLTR chain 2: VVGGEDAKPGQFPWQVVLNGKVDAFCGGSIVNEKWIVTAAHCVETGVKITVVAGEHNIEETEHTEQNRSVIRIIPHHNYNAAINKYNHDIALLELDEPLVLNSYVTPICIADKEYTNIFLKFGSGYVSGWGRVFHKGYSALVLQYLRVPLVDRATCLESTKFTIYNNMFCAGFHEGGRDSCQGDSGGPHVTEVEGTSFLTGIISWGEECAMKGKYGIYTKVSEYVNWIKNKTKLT", "Criterion met"),
]
